Biological target: FLJ13397 clone-derived protein (CARP) (Homo sapiens)
Construct: A human full-length cDNA clone was expressed as a protein with an N-terminal His tag; His tag (pDEST17 Gateway vector) (N); made in house; host or cells: Escherichia coli BL21star(DE3)pLysS
Sequence (Q9H8M7 whole entry): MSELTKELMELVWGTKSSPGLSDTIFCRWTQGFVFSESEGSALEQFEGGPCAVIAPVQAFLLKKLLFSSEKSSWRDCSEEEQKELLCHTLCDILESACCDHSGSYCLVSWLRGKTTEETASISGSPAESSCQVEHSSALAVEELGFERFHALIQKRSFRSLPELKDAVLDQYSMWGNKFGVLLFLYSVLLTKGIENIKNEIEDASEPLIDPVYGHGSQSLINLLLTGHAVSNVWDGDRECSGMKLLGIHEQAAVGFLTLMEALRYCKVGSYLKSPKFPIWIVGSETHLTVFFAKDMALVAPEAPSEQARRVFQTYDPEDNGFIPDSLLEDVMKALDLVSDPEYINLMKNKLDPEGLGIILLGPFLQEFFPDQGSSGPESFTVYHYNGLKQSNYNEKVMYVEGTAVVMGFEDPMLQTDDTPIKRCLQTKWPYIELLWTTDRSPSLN
Assay: SEC/MS (size exclusion chromatography / mass analysis) interaction analysis between FLJ13397 clone-derived protein and compounds
Assay type: binding
Details: compound 250 μM; protein 47.5 μM
Structures can show the parent of a compound that is named as a salt.
assay readout: spectrum intensity of the extracted mass range (compound in SEC spin column filtrate)

# compound, result
data = [
    ("CC(C)(C)c1ccc(C(O)CCCN2CCC(C(O)(c3ccccc3)c3ccccc3)CC2)cc1 (stereo not shown)", 1700398168),
    ("c1ccc2[nH]cnc2c1", 13446649),
    ("COC(=O)Nc1nc2ccccc2[nH]1", 148437211),
    ("CC[C@@H](C(=O)[C@@H](C)[C@@H](O)[C@H](C)CCc1ccc(C)c(O)c1C(=O)O)[C@H]1O[C@](CC)([C@H]2CC[C@](O)(CC)[C@H](C)O2)C[C@@H]1C [Lasalocid sodium salt]", 9802098210),
    ("COC(=O)Nc1nc2ccc(S(=O)(=O)c3ccccc3)cc2[nH]1", 286102392),
    ("COC(=O)Nc1nc2ccc([S+]([O-])c3ccccc3)cc2[nH]1 (stereo not shown)", 506800735),
    ("CCCSc1ccc2nc(NC(=O)OC)[nH]c2c1", 55508710),
    ("c1ccc2[nH]c(-c3cscn3)nc2c1", 125101370),
    ("CCCS(=O)(=O)c1ccc2[nH]c(N)nc2c1", 159174682),
    ("CCCOc1ccc2nc(NC(=O)OC)[nH]c2c1", 13559202),
    ("CCC[S+]([O-])c1ccc2[nH]c(NC(=O)OC)nc2c1 (stereo not shown) [Albendazole Sulfoxide]", 372564422),
    ("Oc1ccc(CCN2CCC(Nc3nc4ccccc4n3Cc3ccc(F)cc3)CC2)cc1", 728918987),
    ("OC(c1ccccc1)(c1ccccc1)C1CCNCC1", 1037919),
]
